Data origin, for the record: patent US20180127503A1

tested system: T1, human ROR2 expressed on the cell surface (human, UniProt Q01974 34-943)
T1 construct: Endogenous ROR2 of human tumour cell lines; also called cell surface ROR2; ROR2 on tumour cell lines
T1 sequence (Q01974 34-943 limits assumed): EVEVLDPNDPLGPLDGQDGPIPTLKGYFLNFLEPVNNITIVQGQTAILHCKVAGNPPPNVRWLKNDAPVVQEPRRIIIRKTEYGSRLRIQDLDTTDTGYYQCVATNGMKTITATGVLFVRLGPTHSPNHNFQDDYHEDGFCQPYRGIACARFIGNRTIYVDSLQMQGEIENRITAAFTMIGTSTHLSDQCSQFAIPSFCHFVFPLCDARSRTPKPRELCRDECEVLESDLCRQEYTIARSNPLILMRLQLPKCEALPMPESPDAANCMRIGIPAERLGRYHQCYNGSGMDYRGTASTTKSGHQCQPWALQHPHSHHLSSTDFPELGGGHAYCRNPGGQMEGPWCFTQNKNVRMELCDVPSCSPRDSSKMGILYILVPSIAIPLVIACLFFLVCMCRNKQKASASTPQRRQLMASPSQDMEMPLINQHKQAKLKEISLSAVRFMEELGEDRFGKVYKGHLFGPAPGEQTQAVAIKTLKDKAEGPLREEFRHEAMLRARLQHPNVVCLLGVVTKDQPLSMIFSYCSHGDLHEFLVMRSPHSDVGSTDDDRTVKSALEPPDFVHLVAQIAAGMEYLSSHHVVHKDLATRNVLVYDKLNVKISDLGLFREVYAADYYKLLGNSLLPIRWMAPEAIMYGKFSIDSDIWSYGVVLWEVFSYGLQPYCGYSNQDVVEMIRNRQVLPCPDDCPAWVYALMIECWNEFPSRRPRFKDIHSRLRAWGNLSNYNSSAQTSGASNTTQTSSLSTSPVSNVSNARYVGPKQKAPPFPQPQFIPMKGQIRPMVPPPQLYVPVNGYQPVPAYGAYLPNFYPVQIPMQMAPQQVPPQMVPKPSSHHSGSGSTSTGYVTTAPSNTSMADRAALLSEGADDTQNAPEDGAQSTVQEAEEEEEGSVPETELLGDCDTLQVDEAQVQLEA
assay: flow cytometry, NB5 cells (neuroblastoma)
Set-up: unit not given here

binder: ROR2-240 full length human IgG1 antibody (antibody, V domains shown, also called clone #240 IgG1) VH: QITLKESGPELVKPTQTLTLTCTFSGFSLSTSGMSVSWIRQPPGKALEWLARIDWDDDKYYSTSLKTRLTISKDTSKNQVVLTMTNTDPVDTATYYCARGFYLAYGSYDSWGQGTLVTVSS VL: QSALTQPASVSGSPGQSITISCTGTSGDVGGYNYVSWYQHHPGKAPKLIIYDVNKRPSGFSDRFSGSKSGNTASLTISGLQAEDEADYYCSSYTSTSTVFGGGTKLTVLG
binding intensity: 17
--
binder: ROR2-241 full length human IgG1 antibody (antibody, V domains shown) VH: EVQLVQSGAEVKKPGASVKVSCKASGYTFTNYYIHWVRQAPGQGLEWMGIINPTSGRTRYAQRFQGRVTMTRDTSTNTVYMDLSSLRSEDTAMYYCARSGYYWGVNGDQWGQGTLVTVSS VL: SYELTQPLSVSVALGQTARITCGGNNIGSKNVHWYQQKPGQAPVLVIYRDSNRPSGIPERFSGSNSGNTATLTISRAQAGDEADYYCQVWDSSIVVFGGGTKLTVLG
binding intensity: 56
